All values here come from patent US20240124465A1.

# Tested on: MHH-CALL-4 cells
# TEST_NAME: Cytotoxicity assay (resazurin, 72 hours)
# Format: cell-based
# Design: unit not given beside the values
# STATED_CONDITIONS: area under the dose-response curve
# Method: Cytotoxicity assay: MHH-CALL-4 cells were maintained in RPMI1640 medium (Invitrogen) supplemented with 10% FBS (Hyclone), Penicillin/Streptomycin (100 units/mL) and Glutamine (100 μM). […] Cells were then incubated for four hours with resazurin (Sigma) solution and read on a Synergy HT plate reader (Biotek, Winooski, VT). […] All the AUC (area under the dose-response curve) per compound calculated from its dose response curve by RISE protocol. […]
QUANTITY_NAME: AUC
One number for each entry.

Check out these entries, answers already filled in.
>>> meas_value("CCS(=O)(=O)N1CC(CC#N)(n2cc(-c3nc(Nc4ccc(C(=O)NCCCCCCNc5ccc(C6CCC(=O)NC6=O)cc5)cc4)nc4[nH]ccc34)cn2)C1 (stereo not drawn)")
231
>>> meas_value("CCCn1cc(-c2nc(Nc3ccc(C(=O)NCCCN4CCN(c5cccc6c5C(=O)C(C5CCC(=O)NC5=O)C6=O)CC4)cc3)nc3[nH]ccc23)cn1 (stereo not drawn)")
250

Please look at the following compound next.
# input Consider the compound CCS(=O)(=O)N1CC(CC#N)(n2cc(-c3nc(Nc4ccc(C(=O)NCCCCNC(=O)COc5ccc(C6CCC(=O)NC6=O)cc5)cc4)nc4[nH]ccc34)cn2)C1 (stereo not drawn) . State its measured AUC.
# output 156
